molecular target: Tumor necrosis factor receptor superfamily member 10B (Homo sapiens); experiment: caspase-8 TRAIL sensitization, hit retest, confirmation, cell-based, NB7+caspase-8, with/without TRAIL, luminescence panel (AID 651596); details: NB7 neuroblastoma + caspase-8, TRAIL sensitization, luminescence viability, with TRAIL, mean of runs, at 10 µM, stronger effect = higher value
Item-by-item account of activity
Just the number please, in %, no unit attached.

Consider the reported activity for these compounds:
O=c1oc(/C=C/c2ccccc2)nc2ccccc12 :: 76.2
Cc1cc2nc(-c3ccc(SCC(=O)Nc4nccs4)nc3)[nH]c2cc1C :: 58
Clc1ccc(-n2cnc3c(Cl)ncnc32)cc1Cl :: 71.7

[ask] Entry Cn1c(=O)n(CCc2ccccc2)c(=O)c2c1nc1n2CCCN1CCc1ccccc1 has what activity?
[reply] 21.1

[ask] Given the entry O=c1c2c(-c3ccccc3)csc2nc2c3ccccc3c(NCCN3CCOCC3)nn12 , report its measured activity.
[reply] 89.5

[ask] Tell me the measured activity of Cc1cc(O)c(C(=O)/C=C/c2ccc(Cl)cc2)c(=O)o1 , please.
[reply] 83.4

[ask] Can you share its activity? I mean this compound: COc1ccc(C(=O)Nn2c(SCC(=O)N3CCC(C)CC3)nc3ccccc3c2=O)cc1
[reply] 68.2

[ask] # get_value(readout='activity', item= COc1ccc2sc(-c3ccc(S(C)(=O)=O)cc3)c(C#Cc3cncn3C)c2c1 )
[reply] 66.7

[ask] Reported activity, compound O=C(NC1=NCCS1)c1cc2ccccc2o1 : ____
[reply] 56.6

[ask] Endpoint output: activity of Cc1cccc(/C=C/c2nc3ccccc3c(=O)[nH]2)c1 . Value?
[reply] 61.5

[ask] Need activity, item Cc1ccnc(NC(=O)c2ccc3c(c2)OCO3)c1
[reply] 82.5

All values here come from PubChem BioAssay.
